Test system: HepG2
Experiment: cytotoxicity call (relative viability < 0.9)
Details: 10 µM
Hit rate of the full screen: of about 39,000 compounds, about 3,300 (8.5%) were called active. The sample holds actives, similar compounds and a random draw of the others, so the mix is not that of the screen.
experimental.readout: cytotoxicity call

>  <given.smiles>
C[C@H]1CN([C@@H](C)CO)C(=O)Cc2cc(NS(=O)(=O)c3cccs3)ccc2O[C@H]1CN(C)Cc1ccc(Oc2ccccc2)cc1

>  <result>
inactive

$$$$
>  <given.smiles>
C[C@@H]1CN([C@H](C)CO)C(=O)Cc2cc(NS(=O)(=O)c3cccs3)ccc2O[C@H]1CN(C)Cc1ccc(Oc2ccccc2)cc1

>  <result>
active

$$$$
>  <given.smiles>
C[C@@H]1CN([C@H](C)CO)C(=O)Cc2cc(NS(=O)(=O)c3cccs3)ccc2O[C@@H]1CN(C)Cc1ccc(Oc2ccccc2)cc1

>  <result>
active

$$$$
>  <given.smiles>
Cc1noc(C)c1S(=O)(=O)N(C)C[C@@H]1Oc2ccc(NC(=O)Cc3ccccc3)cc2CC(=O)N([C@@H](C)CO)C[C@H]1C

>  <result>
inactive

$$$$

====

Test system: HepG2
Assay: cytotoxicity call (relative viability < 0.9)
Details: 10 µM
Hit rate of the full screen: of about 39,000 compounds, about 3,300 (8.5%) were called active. Only a selection was taken, and actives are over-represented in it overall.
Select the matching outcome among y = active, n = inactive

Illustrative cases are given below, each with its answer.
>  <given.smiles>
COc1ccc(CNC(=O)C[C@H]2C[C@@H]3c4cc(NS(=O)(=O)c5ccc(F)cc5)ccc4O[C@@H]3[C@H](CO)O2)cc1

>  <classification>
n

$$$$
>  <given.smiles>
Nc1nc(N)c2c(n1)CCCC2

>  <classification>
n

$$$$
>  <given.smiles>
O=C(C[C@@H]1CC[C@@H]2[C@H](COC[C@H](O)CN2C(=O)c2ccccn2)O1)NC1CCC1

>  <classification>
n

$$$$
>  <given.smiles>
CCc1nc2ccccc2c(N)c1C

>  <classification>
n

$$$$

Q) Hello, I am checking results. What call was entered for C[C@H](CO)N1C[C@H](C)[C@H](CN(C)C(=O)Cc2ccccc2)OCCCC[C@H](C)Oc2ccc(NS(=O)(=O)c3ccc(Cl)cc3)cc2C1=O ?
A) n

Q) Hello, I am checking results. What call was entered for O=C(C[C@@H]1C[C@H]2c3cc(NC(=O)c4cccnc4)ccc3O[C@H]2[C@@H](CO)O1)NCc1cc(F)ccc1F ?
A) n

Q) Hello, I am checking results. What call was entered for C[C@@H]1CN([C@@H](C)CO)S(=O)(=O)c2ccc(-c3ccc(F)cc3)cc2O[C@H]1CN(C)S(C)(=O)=O ?
A) n

Q) Hello, I am checking results. What call was entered for COc1ccc(NC(=O)Nc2ccc3c(c2)C(=O)N([C@H](C)CO)C[C@H](C)[C@H](CN(C)Cc2ccccc2)OCCCC[C@@H](C)O3)cc1 ?
A) n

Q) Hello, I am checking results. What call was entered for Cl.Nc1c2c(nc3ccccc13)CCCC2 ?
A) y

====

Tested on: HepG2
Assay: cytotoxicity call (relative viability < 0.9)
Settings: 10 µM
The campaign covered roughly 39,000 compounds. About 3,300 (8.5%) were called active. The sample as a whole holds a higher share of actives than the screen did.
Select the matching outcome among active, inactive

Illustrative cases are given below, each with its answer.
>  <given.smiles>
COc1ccc(NC(=O)Nc2ccc3c(c2)CC(=O)N([C@H](C)CO)C[C@@H](C)[C@H](CN(C)Cc2ccc(Cl)c(Cl)c2)O3)cc1

>  <tgt>
HepG2

>  <classification>
active

$$$$
>  <given.smiles>
CC(=O)On1cc(F)c(=O)[nH]c1=O

>  <tgt>
HepG2

>  <classification>
active

$$$$
>  <given.smiles>
COc1ccc(NC(=O)Nc2ccc3c(c2)CC(=O)N([C@H](C)CO)C[C@@H](C)[C@@H](CN(C)Cc2ccc(Cl)c(Cl)c2)O3)cc1

>  <tgt>
HepG2

>  <classification>
inactive

$$$$
>  <given.smiles>
COc1ccc(NC(=O)Nc2ccc3c(c2)CC(=O)N([C@@H](C)CO)C[C@@H](C)[C@H](CN(C)Cc2ccc(Cl)c(Cl)c2)O3)cc1

>  <tgt>
HepG2

>  <classification>
inactive

$$$$
>  <given.smiles>
C[C@H]1CN([C@@H](C)CO)S(=O)(=O)c2ccc(-c3cccc(C#N)c3)cc2O[C@@H]1CN(C)C(=O)c1ccncc1

>  <tgt>
HepG2

>  <classification>
inactive

$$$$

Q) Hello, I am checking results. What call was entered for COc1ccc(S(=O)(=O)N(C)C[C@@H]2Oc3ccc(NS(=O)(=O)c4ccc(F)cc4)cc3C(=O)N([C@@H](C)CO)C[C@H]2C)cc1 ?
A) inactive

Q) Hello, I am checking results. What call was entered for O=C(COc1ccc(S(=O)(=O)N2CCOCC2)cc1)N1CCOCC1 ?
A) inactive
